Reported NUCLEATED RED BLOOD CELLS values are given for each entry in this list.
# Organism: Rattus norvegicus
# method_notes: DrugMatrix - Regimen: Daily Repeat
# Type: toxicity, organism-based, Sprague-Dawley
# Set-up: regimen Daily Repeat, gender Male, age 6-8 weeks
# test_context: in vivo, sc, 0 mg/kg, 120 h, tissue Blood, route subcutaneous, dose level Control, time 5 day, […]

(Q) Entry Oc1c(Cl)cc(Cl)c(Cl)c1Cc1c(O)c(Cl)cc(Cl)c1Cl [HEXACHLOROPHENE] has what NUCLEATED RED BLOOD CELLS?
(A) 0 /100WBC

(Q) Also O=C(Nc1ccc(Br)cc1)c1cc(Br)cc(Br)c1O [TRIBROMSALAN] , if possible.
(A) 0 /100WBC

(Q) // query: CCN(CC)CCOCCC1=CCC2CC1C2(C)C (stereo not given) [MYRTECAINE]
(A) 0 /100WBC

(Q) Entry CC(C)(C)CC(C)(C)c1ccc(OCCOCC[N+](C)(C)Cc2ccccc2)cc1.[Cl-] [BENZETHONIUM CHLORIDE] please
(A) 0 /100WBC

(Q) Next entry: CCC(=O)O[C@]1(C(=O)CCl)[C@@H](C)C[C@H]2[C@@H]3CCC4=CC(=O)C=C[C@]4(C)[C@@]3(F)[C@@H](O)C[C@@]21C [CLOBETASOL PROPIONATE]
(A) 0 /100WBC
